- assayed.system: CpdB_Ndom (N-terminal domain of CpdB) (Escherichia coli, UniProt P08331, D305N/I97V/M87I)
- Construct: GST (N, cleaved yes); made in house; host or cells: E. coli BL21
- Sequence (P08331 20-354 M87I/I97V/D305N): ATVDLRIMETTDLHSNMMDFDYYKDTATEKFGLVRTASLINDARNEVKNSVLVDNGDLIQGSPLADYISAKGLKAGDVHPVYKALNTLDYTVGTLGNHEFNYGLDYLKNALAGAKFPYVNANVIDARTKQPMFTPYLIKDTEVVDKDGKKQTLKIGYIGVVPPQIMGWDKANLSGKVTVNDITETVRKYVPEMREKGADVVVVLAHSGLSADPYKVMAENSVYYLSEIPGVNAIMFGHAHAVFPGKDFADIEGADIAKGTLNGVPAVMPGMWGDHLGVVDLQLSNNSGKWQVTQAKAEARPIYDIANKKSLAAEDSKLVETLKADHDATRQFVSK
- Assay type: biochemical
- stated.conditions: CpdB_Ndom; substance is the substrate; mean ± SD of three experiments
So I've got a bunch of molecules here, and I need their k cat /K M values.
Answers are plain numbers, in M⁻¹ s⁻¹.

Below are worked cases with known answers.
- molecule: "Nc1ncnc2c1ncn2[C@@H]1O[C@@H]2COP(=O)(O)O[C@H]3[C@@H](O)[C@H](n4cnc5c(N)ncnc54)O[C@@H]3COP(=O)(O)O[C@H]2[C@H]1O [c-di-AMP, 3′,5′-cyclic diadenosine monophosphate]"
  k cat /K M [M⁻¹ s⁻¹]: 3.5
- molecule: "Nc1nc2c(ncn2[C@@H]2O[C@@H]3COP(=O)(O)O[C@H]4[C@@H](O)[C@H](n5cnc6c(=O)[nH]c(N)nc65)O[C@@H]4COP(=O)(O)O[C@H]3[C@H]2O)c(=O)[nH]1 [c-di-GMP, 3′,5′-cyclic diguanosine monophosphate]"
  k cat /K M [M⁻¹ s⁻¹]: 1.2
- molecule: "C[N+](C)(C)CCOP(=O)(O)OP(=O)([O-])OC[C@H]1O[C@@H](n2ccc(N)nc2=O)[C@H](O)[C@@H]1O [CDP-choline]"
  k cat /K M [M⁻¹ s⁻¹]: 1950

Prompt: Can you look up the measured k cat /K M of Nc1ncnc2c1ncn2[C@@H]1O[C@H](COP(=O)(O)O[C@H]2[C@@H](O)[C@H](n3cnc4c(N)ncnc43)O[C@@H]2COP(=O)(O)O)[C@@H](O)[C@H]1O [pApA, 5′-phosphoadenylyl-3′→5′-adenosine] for me?
Completion: 1.8

* * *

- assayed.system: CpdB_Ndom (N-terminal domain of CpdB) (Escherichia coli, UniProt P08331, D305N/I97V/M87I)
- Construct: GST (N, cleaved yes); made in house; host or cells: E. coli BL21
- Type: biochemical
- stated.conditions: CpdB_Ndom; substance is the substrate; mean ± SD of three experiments
value.type: log10(k cat) (log10 of the value in s⁻¹)
Log10 applied to k cat; unit prior to transform: s⁻¹.

Completed entries (count: 3):
- molecular.string: "Nc1ncnc2c1ncn2[C@@H]1O[C@H](CO)[C@@H](OP(=O)(O)O)[C@H]1O"
  assayed.system: "CpdB_Ndom (N-terminal domain of CpdB) (Escherichia coli, UniProt P08331, D305N/I97V/M87I)"
  log10(k cat): -2.40
- molecular.string: "Nc1ncnc2c1ncn2[C@@H]1O[C@H](COP(=O)(O)O[C@H]2[C@@H](O)[C@H](n3cnc4c(N)ncnc43)O[C@@H]2COP(=O)(O)O)[C@@H](O)[C@H]1O"
  assayed.system: "CpdB_Ndom (N-terminal domain of CpdB) (Escherichia coli, UniProt P08331, D305N/I97V/M87I)"
  log10(k cat): -3.40
- molecular.string: "Nc1ncnc2c1ncn2[C@@H]1O[C@H](CO)[C@H]2OP(=O)(O)O[C@H]21"
  assayed.system: "CpdB_Ndom (N-terminal domain of CpdB) (Escherichia coli, UniProt P08331, D305N/I97V/M87I)"
  log10(k cat): 1.86

Parameter requested: log10(k cat). Apply to each item below.
1. O=c1ccn([C@@H]2O[C@H](CO)[C@H]3OP(=O)(O)O[C@H]32)c(=O)[nH]1
2. Nc1ccn([C@@H]2O[C@H](CO)[C@H]3OP(=O)(O)O[C@H]32)c(=O)n1

Completion:
2.19
1.52

* * *

- assayed.system: CpdB_Ndom (Escherichia coli, UniProt P08331, D305N/I97V/M87I)
- Construct: GST (N, cleaved yes); made in house; host or cells: E. coli BL21
- Type: biochemical
- stated.conditions: CpdB_Ndom; 750 µM bis-4-NPP as the substrate; single illustrative experiments
Simple rule here: IC50 less than 4000 µM is Satisfied, otherwise Not satisfied.

Answered examples (2):
- molecular.string: "Nc1ncnc2c1ncn2[C@@H]1O[C@H](COP(=O)(O)OP(=O)(O)OP(=O)(O)O)[C@@H](O)[C@H]1O"
  discrete.label: "Not satisfied"
- molecular.string: "Nc1ncnc2c1ncn2[C@@H]1O[C@H](CO)[C@@H](O)[C@H]1OP(=O)(O)O"
  discrete.label: "Satisfied"

Prompt: Please let me know if Nc1ncnc2c1ncn2[C@@H]1O[C@H](CO)[C@H]2OP(=O)(O)O[C@H]21 shows IC50 below 4000 µM.
Completion: Satisfied

Prompt: How about this molecule: Nc1ncnc2c1ncn2[C@@H]1O[C@H](COP(=O)(O)O)[C@@H](O)[C@H]1O
Completion: Satisfied

* * *

Answer each item with its documented pKi.
- assayed.system: CpdB_Ndom (Escherichia coli, UniProt P08331, D305N/I97V/M87I)
- Construct: GST (N, cleaved yes); made in house; host or cells: E. coli BL21
- Format: biochemical
- stated.conditions: CpdB_Ndom; substrate bis-4-NPP; estimated from inhibitor dose-response curves (Figure 6); read-out: Inhibition constant (Ki)
Answers are plain numbers, as −log10 of the molar value.

- compound: "Nc1ncnc2c1ncn2[C@@H]1O[C@H](COP(=O)(O)OP(=O)(O)OP(=O)(O)O)[C@@H](O)[C@H]1O [ATP]"
  pKi: 2.24

Continue with the compound presented below.
Prompt: Form field: reported pKi of Nc1ncnc2c1ncn2[C@@H]1O[C@H](CO)[C@@H](O)[C@H]1OP(=O)(O)O [2′-AMP]
Completion: 3.22

* * *

- assayed.system: Mature CpdB (Escherichia coli)
- assay.details: biochemical
value.type: IC50 (mM)
Give bare numbers, in mM.

Prompt: I'm curious: which IC50 was measured for Nc1ncnc2c1ncn2[C@@H]1O[C@H](CO)[C@@H](O)[C@H]1O tested on Mature CpdB (Escherichia coli)?
Completion: 3.25

* * *

- assayed.system: CpdB_Ndom (Escherichia coli, UniProt P08331, D305N/I97V/M87I)
- Construct: GST (N, cleaved yes); made in house; host or cells: E. coli BL21
- assay.details: biochemical
- stated.conditions: CpdB_Ndom; substrate bis-4-NPP; global fit, complete competitive inhibition (Figure 7); read-out: Inhibition constant (Ki)
- From the text: Substrate saturation experiments were run in the absence and the presence of one of these inhibitors at fixed concentrations (Figure 7). […]
value.type: Ki (µM)
Numbers only, in µM.

// worked examples, Ki included
- molecular.string: "Nc1ncnc2c1ncn2[C@@H]1O[C@H](CO)[C@@H](OP(=O)(O)O)[C@H]1O"
  scale.unit: "µM"
  Ki: 3300
- molecular.string: "Nc1ncnc2c1ncn2[C@@H]1O[C@H](CO)[C@H]2OP(=O)(O)O[C@H]21"
  scale.unit: "µM"
  Ki: 460

Below: the item to evaluate.
Prompt: Please provide the recorded Ki for Nc1ncnc2c1ncn2[C@@H]1O[C@H](COP(=O)(O)O)[C@@H](O)[C@H]1O , tested on CpdB_Ndom (Escherichia coli, UniProt P08331, D305N/I97V/M87I).
Completion: 370

* * *

- assayed.system: Mature CpdB (Escherichia coli)
Exercise: state measured pIC50 for each of the compounds provided.
Answers are plain numbers, as −log10 of the molar value.

- compound: "Nc1ncnc2c1ncn2[C@@H]1O[C@H](COP(=O)(O)O)[C@@H](O)[C@H]1O [5′-AMP]"
  pIC50: 3.05

Proceed to the following item.
Prompt: Consider the compound Nc1ncnc2c1ncn2[C@@H]1O[C@H](CO)[C@@H](O)[C@H]1OP(=O)(O)O [2′-AMP] and give its measured pIC50.
Completion: 3.49

* * *

- assayed.system: Mature CpdB (Escherichia coli, UniProt P08331)
- Sequence (P08331 20-647): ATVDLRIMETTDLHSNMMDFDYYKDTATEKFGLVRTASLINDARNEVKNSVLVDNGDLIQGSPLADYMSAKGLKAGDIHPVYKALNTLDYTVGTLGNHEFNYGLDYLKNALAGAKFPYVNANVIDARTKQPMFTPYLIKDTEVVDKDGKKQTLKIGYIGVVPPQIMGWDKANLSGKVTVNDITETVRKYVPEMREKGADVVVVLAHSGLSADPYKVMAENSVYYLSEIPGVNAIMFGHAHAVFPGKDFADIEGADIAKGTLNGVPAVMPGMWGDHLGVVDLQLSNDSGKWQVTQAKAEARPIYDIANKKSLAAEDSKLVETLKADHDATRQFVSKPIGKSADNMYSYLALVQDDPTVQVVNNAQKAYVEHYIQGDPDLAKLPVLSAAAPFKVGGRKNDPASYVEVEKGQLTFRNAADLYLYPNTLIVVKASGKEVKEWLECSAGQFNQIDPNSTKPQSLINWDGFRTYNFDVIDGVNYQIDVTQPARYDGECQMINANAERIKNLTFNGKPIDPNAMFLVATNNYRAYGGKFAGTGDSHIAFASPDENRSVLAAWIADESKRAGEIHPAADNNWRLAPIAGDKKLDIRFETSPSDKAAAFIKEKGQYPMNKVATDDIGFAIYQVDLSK
- assay.details: biochemical
- Assay type: biochemical
- Set-up: A structural model of mature CpdB (aa 20–647) was built; GST (N, cleaved yes); made in house; host or cells: E. coli BL21
- stated.conditions: mature CpdB; 750 µM bis-4-NPP as the substrate; single illustrative experiments; read-out: IC50
- Description: Reaction mixtures of 100 µL contained, besides the needed amount of enzyme (i.e., 0.02–0.05 µg/mL of mature CpdB, 2 µg/mL of a CpdB point mutant, or 0.2 µg/mL of CpdB_Ndom), 50 mM Tris [Tris(hydroxymethyl)aminomethane]-HCl pH 7.5 (adjusted at 37 °C), 2 mM MnCl2, 0.1 mg/mL bovine serum albumin, and the indicated concentrations of bis-4-NPP and the compound tested as inhibitor. […]
Kindly supply the reported pIC50 values for the records listed here.
Answers are plain numbers, as −log10 of the molar value.

Recorded pIC50, per entry:
- molecular.string: "Nc1ncnc2c1ncn2[C@@H]1O[C@H](CO)[C@@H](O)[C@H]1OP(=O)(O)O"
  assayed.system: "Mature CpdB (Escherichia coli, UniProt P08331)"
  pIC50: 4.00
- molecular.string: "Nc1ncnc2c1ncn2[C@@H]1O[C@H](COP(=O)(O)O)[C@@H](O)[C@H]1O"
  assayed.system: "Mature CpdB (Escherichia coli, UniProt P08331)"
  pIC50: 3.96

Go through the items and report each one's pIC50.
1. Nc1ncnc2c1ncn2[C@@H]1O[C@H](COP(=O)(O)OP(=O)(O)OP(=O)(O)O)[C@@H](O)[C@H]1O
2. Nc1ncnc2c1ncn2[C@@H]1O[C@H](COP(=O)(O)OP(=O)(O)O)[C@@H](O)[C@H]1O
3. Nc1ncnc2c1ncn2[C@@H]1O[C@H](CO)[C@H]2OP(=O)(O)O[C@H]21
4. Nc1ncnc2c1ncn2[C@@H]1O[C@H](CO)[C@@H](OP(=O)(O)O)[C@H]1O

Completion:
3.14
2.96
4.25
4.27
